measuredOn: human NPR1 (Homo sapiens, UniProt P16066)
Construct: host or cells: CHO-K1
Sequence (P16066 33-1061): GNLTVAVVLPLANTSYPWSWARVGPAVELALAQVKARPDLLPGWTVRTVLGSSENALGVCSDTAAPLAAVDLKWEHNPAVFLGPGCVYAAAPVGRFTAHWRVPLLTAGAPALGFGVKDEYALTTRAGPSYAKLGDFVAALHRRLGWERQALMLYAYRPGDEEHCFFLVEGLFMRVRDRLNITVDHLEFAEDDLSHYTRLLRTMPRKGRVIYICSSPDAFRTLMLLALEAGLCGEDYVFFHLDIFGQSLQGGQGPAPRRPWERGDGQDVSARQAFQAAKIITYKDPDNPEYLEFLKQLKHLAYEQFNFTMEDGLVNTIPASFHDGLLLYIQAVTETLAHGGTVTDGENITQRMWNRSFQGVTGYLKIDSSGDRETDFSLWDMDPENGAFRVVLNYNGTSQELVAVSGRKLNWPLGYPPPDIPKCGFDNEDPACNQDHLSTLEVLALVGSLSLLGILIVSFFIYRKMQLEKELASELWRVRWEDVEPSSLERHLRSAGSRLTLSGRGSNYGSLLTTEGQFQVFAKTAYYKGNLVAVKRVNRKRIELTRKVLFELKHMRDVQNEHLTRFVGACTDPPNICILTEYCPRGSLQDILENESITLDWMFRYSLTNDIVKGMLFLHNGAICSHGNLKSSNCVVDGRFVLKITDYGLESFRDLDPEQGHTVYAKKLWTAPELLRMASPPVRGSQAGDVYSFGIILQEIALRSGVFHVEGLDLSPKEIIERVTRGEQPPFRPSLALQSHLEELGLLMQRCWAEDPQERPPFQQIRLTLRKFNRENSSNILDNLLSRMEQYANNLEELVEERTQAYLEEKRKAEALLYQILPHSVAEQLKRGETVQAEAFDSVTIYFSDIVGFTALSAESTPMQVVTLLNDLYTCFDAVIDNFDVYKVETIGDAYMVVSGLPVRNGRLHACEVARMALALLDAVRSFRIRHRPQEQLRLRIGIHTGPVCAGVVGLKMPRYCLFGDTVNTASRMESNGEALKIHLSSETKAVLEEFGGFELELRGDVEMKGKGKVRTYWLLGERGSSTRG
assayRemarks: Cellular cGMP production assay, human NPR1 expressing CHO-K1 cells (CisBio HTRF)
Assay type: cell-based
conditionInfo: maximum cGMP production as percentage of the maximum cGMP produced with ANP
metricName: Human NPR1 Amax (% of ANP)

The recorded Human NPR1 Amax (% of ANP) for CC[C@@H](Nc1nc2c(c(N[C@@H](CN3CC4CCC3C4)c3cnn(C)c3)n1)C[C@H](c1ccccc1)CC2)[C@H]1CC[C@H](C(=O)O)CC1 (stereo partly drawn) is 99.715 % of ANP

The recorded Human NPR1 Amax (% of ANP) for "CC[C@H]([C@H]1CC[C@H](C(=O)O)CC1)N(C)c1nc2c(c(N[C@@H](CN3CCC[C@H](C)C3)c3cnn(C)c3)n1)C[C@H](c1ccccc1)CC2" is 102.476 % of ANP

The recorded Human NPR1 Amax (% of ANP) for "CC[C@H]([C@H]1CC[C@H](C(=O)O)CC1)N(C)c1nc2c(c(N[C@@H](CN3C4CCC3CC4)c3cnn(C)c3)n1)C[C@H](c1cccc(F)c1)CC2" is 101.340 % of ANP

The recorded Human NPR1 Amax (% of ANP) for "CC[C@H](N(C)c1nc2c(c(N[C@@H](CN3CCC[C@H](CF)C3)c3cnn(C)c3)n1)C[C@](C)(c1ccccc1)CC2)C12CC(C(=O)O)(C1)C2" is 101.178 % of ANP

The recorded Human NPR1 Amax (% of ANP) for "CC[C@@H](Nc1nc2c(c(N[C@@H](CN3CCCCC3)c3cnn(C(C)C)c3)n1)C[C@H](c1ccccc1)CC2)[C@H]1CC[C@H](C(=O)O)CC1" is 92.848 % of ANP

The recorded Human NPR1 Amax (% of ANP) for CC[C@@H](Nc1nc2c(c(N[C@@H](CN3CC4CCC3C4)c3ccccc3)n1)C[C@H](c1ccccc1)CC2)[C@H]1CC[C@H](C(=O)O)CC1 (stereo partly drawn) is 94.868 % of ANP

* * *

measuredOn: monkey NPR1 (Macaca fascicularis, UniProt A0A7N9DBT9)
Sequence (A0A7N9DBT9 entry or part of it): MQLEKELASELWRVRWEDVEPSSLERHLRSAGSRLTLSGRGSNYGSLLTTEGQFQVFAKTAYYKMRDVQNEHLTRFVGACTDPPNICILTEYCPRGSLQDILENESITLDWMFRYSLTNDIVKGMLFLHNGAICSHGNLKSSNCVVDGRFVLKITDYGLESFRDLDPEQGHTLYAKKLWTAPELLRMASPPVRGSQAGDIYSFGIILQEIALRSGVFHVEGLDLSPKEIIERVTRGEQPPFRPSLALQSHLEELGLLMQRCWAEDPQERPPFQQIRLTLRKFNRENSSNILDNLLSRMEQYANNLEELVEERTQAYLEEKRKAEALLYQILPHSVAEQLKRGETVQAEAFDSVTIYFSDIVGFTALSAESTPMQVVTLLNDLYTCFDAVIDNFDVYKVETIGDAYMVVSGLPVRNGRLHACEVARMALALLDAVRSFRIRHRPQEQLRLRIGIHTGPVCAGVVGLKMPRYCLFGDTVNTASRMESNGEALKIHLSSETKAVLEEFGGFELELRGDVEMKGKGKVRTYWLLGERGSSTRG
assayRemarks: Cellular cGMP production assay, monkey NPR1 expressing CHO-K1 cells (CisBio HTRF)
Type: cell-based
conditionInfo: maximum cGMP production as percentage of the maximum cGMP produced with ANP, monkey NPR1 CHO-K1 cells
metricName: Monkey NPR1 Amax (% of ANP)

The following compounds have reported results that may help.
{"compound": "CC[C@@H](Nc1nc2c(c(N[C@@H](CN3CCCC[C@H]3C)c3cnn(CC)c3)n1)C[C@H](c1ccccc1)CC2)[C@H]1CC[C@H](C(=O)O)CC1", "measuredOn": "monkey NPR1 (Macaca fascicularis, UniProt A0A7N9DBT9)", "Monkey NPR1 Amax (% of ANP)": "92.911 % of ANP"}
{"compound": "CC[C@@H](N(C)c1nc2c(c(N[C@@H](CN3C4CCCC3CC4)c3scnc3C)n1)C[C@H](c1cccc(F)c1)CC2)C12CC(C(=O)O)(C1)C2", "measuredOn": "monkey NPR1 (Macaca fascicularis, UniProt A0A7N9DBT9)", "Monkey NPR1 Amax (% of ANP)": "99.894 % of ANP"}
{"compound": "CC[C@@H](Nc1nc2c(c(N[C@@H](CN3CCCCC3)c3cnn(C)c3)n1)C[C@H](c1ccccc1)CC2)[C@H]1CC[C@H](C(=O)O)CC1", "measuredOn": "monkey NPR1 (Macaca fascicularis, UniProt A0A7N9DBT9)", "Monkey NPR1 Amax (% of ANP)": "108.953 % of ANP"}
{"compound": "CC[C@@H](Nc1nc2c(c(N[C@@H](CN3CC4CCC3C4)c3cnn(C)c3)n1)C[C@H](c1ccccc1)CC2)[C@H]1CC[C@H](C(=O)O)CC1 (some centres unmarked)", "measuredOn": "monkey NPR1 (Macaca fascicularis, UniProt A0A7N9DBT9)", "Monkey NPR1 Amax (% of ANP)": "95.422 % of ANP"}

Form field, Monkey NPR1 Amax (% of ANP) with monkey NPR1 (Macaca fascicularis, UniProt A0A7N9DBT9), item "CC[C@H]([C@H]1CC[C@H](C(=O)O)CC1)N(C)c1nc2c(c(N[C@@H](CN3CCC[C@H](C)C3)c3cnn(C)c3)n1)CN(C1CCCCC1)CC2" : 106.260 % of ANP

Form field, Monkey NPR1 Amax (% of ANP) with monkey NPR1 (Macaca fascicularis, UniProt A0A7N9DBT9), item "CC[C@@H](Nc1nc2c(c(N[C@@H](CN3C4CC5CC(C4)CC3C5)c3cnn(CC)c3)n1)C[C@H](c1ccccc1)CC2)[C@H]1CC[C@H](C(=O)O)CC1" : 101.007 % of ANP

* * *

Readings of Human NPR1 Amax (% of ANP) for the listed molecules
measuredOn: human NPR1 (Homo sapiens, UniProt P16066)
Construct: host or cells: CHO-K1
assayRemarks: Cellular cGMP production assay, human NPR1 expressing CHO-K1 cells (CisBio HTRF)
Assay type: cell-based
conditionInfo: maximum cGMP production as percentage of the maximum cGMP produced with ANP

{"moleculeSmiles": "CC[C@H]([C@H]1CC[C@H](C(=O)O)CC1)N(C)c1nc2c(c(N[C@@H](CN3C4CCCC3CC4)c3cc(C)n(C)n3)n1)C[C@H](c1cccc(F)c1)CC2", "measuredOn": "human NPR1 (Homo sapiens, UniProt P16066)", "Human NPR1 Amax (% of ANP)": "98.817 % of ANP"}

The recorded Human NPR1 Amax (% of ANP) for "CC[C@H]([C@H]1CC[C@H](C(=O)O)CC1)N(C)c1nc2c(c(N[C@@H](CN3CCC[C@H](C)C3)c3cnn(C)c3)n1)CN(c1cccc(C#N)c1)CC2" is 93.788 % of ANP

The recorded Human NPR1 Amax (% of ANP) for "CC[C@H]([C@H]1CC[C@H](C(=O)O)CC1)N(C)c1nc2c(c(N[C@@H](CN3C4CCCC3CC4)c3cnc(C)s3)n1)C[C@H](c1cccc(F)c1)CC2" is 101.636 % of ANP

The recorded Human NPR1 Amax (% of ANP) for "CC[C@@H](Nc1nc2c(c(N[C@@H](CN3CCCC(C)(C)C3)c3cnn(C)c3)n1)C[C@H](c1ccccc1)CC2)[C@H]1CC[C@H](C(=O)O)CC1" is 97.121 % of ANP

The recorded Human NPR1 Amax (% of ANP) for "CC[C@@H](Nc1nc2c(c(N[C@@H](CN3CCCCCC3)c3cnn(CC)c3)n1)C[C@H](c1ccccc1)CC2)[C@H]1CC[C@H](C(=O)O)CC1" is 101.620 % of ANP

The recorded Human NPR1 Amax (% of ANP) for "C[C@H]1CCCN(C[C@H](Nc2nc(N(C)[C@H](C3CC3)[C@H]3CC[C@H](C(=O)O)CC3)nc3c2C[C@H](c2cccc(F)c2)CC3)c2cnn(C)c2)C1" is 101.280 % of ANP

The recorded Human NPR1 Amax (% of ANP) for "CC[C@H]([C@H]1CC[C@H](C(=O)O)CC1)N(C)c1nc2c(c(N[C@@H](CN3CCC[C@H](OC)C3)c3cnn(C)c3)n1)C[C@H](c1ccccc1)CC2" is 101.936 % of ANP

The recorded Human NPR1 Amax (% of ANP) for "CC[C@H]([C@H]1CC[C@H](C(=O)O)CC1)N(C)c1nc2c(c(N[C@@H](CN3CCC[C@H](COC)C3)c3cnn(C)c3)n1)C[C@H](c1cccc(F)c1)CC2" is 92.607 % of ANP

The recorded Human NPR1 Amax (% of ANP) for "CC[C@@H](Nc1nc2c(c(N[C@@H](CN3C4CCCC3CCC4)c3cnn(C(C)C)c3)n1)C[C@H](c1ccccc1)CC2)[C@H]1CC[C@H](C(=O)O)CC1" is 97.440 % of ANP

The recorded Human NPR1 Amax (% of ANP) for "CC[C@H]([C@H]1CC[C@H](C(=O)O)CC1)N(C)c1nc2c(c(N[C@@H](CN3C4CCCC3CC4)c3cnn(C)c3)n1)C[C@H](c1ccc(F)cc1)CC2" is 92.978 % of ANP

The recorded Human NPR1 Amax (% of ANP) for "CC[C@H]([C@H]1CC[C@H](C(=O)O)CC1)N(C)c1nc2c(c(N[C@@H](CN3CCC[C@H](C)C3)c3cnn(C)c3)n1)C[C@@H](c1ccccc1F)CC2" is 102.728 % of ANP

* * *

measuredOn: monkey NPR1 (Macaca fascicularis)
assayRemarks: Cellular cGMP production assay, monkey NPR1 expressing CHO-K1 cells (CisBio HTRF)
Assay type: cell-based
metricName: AC50 (nM)
The answer is to be given in nM; state only the numeric part.

{"moleculeSmiles": "CC[C@H]([C@H]1CC[C@H](C(=O)O)CC1)N(C)c1nc2c(c(N[C@@H](CN3C4CCCC3CCC4)c3cnn(C)c3)n1)C[C@H](c1cccc(F)c1)CC2", "AC50 [nM]": 137}

The recorded AC50 for "CC[C@@H](N(C)c1nc2c(c(N[C@@H](CN3C4CCCC3CCC4)c3cnn(C)c3)n1)C[C@](C)(c1ccccc1)CC2)C12CC(C(=O)O)(C1)C2" is 137

The recorded AC50 for "CC[C@H]([C@H]1CC[C@H](C(=O)O)CC1)N(C)c1nc2c(c(N[C@@H](CN3C4CCCC3CCC4)c3cnn(CC)c3)n1)C[C@@H](c1cccc(F)c1)CC2" is 167

The recorded AC50 for "CC[C@H]([C@H]1CC[C@H](C(=O)O)CC1)N(C)c1nc2c(c(N[C@@H](CN3CCC[C@H](C)C3)c3cnn(C)c3)n1)CN(C1CCCCC1)CC2" is 600

The recorded AC50 for "CC[C@H]([C@H]1CC[C@H](C(=O)O)CC1)N(C)c1nc2c(c(N[C@@H](CN3C4CCCC3CC4)c3cnn(C)c3)n1)C[C@H](c1ccccc1)CC2" is 350

Cited source: patent US12129246B1
